The origin of these recorded values is the supplement of paper PMC10567573.

B1: HDAC6 (parent)
chain: YVHHQALLDVKNIAHQNKFGEDMP

Variants of: B1
Assay: protein stability index of a GFP-peptide fusion (GPS, HEK-293T) (PSI 1-6); higher = more stable;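 note: lentivirally expressed fusions sorted by FACS into six bins by GFP to DsRed ratio, PSI derived from sequencing read proportions per bin multiplied by bin number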
Conditions: c terminus: a fixed tail appended
Each entry below carries its reported protein stability index.
REPORTED_ENDPOINT: protein stability index

{"columns": ["MUTATION_STRING", "VALUE"],
 "data": [
  ["H3I", 1.66],
  ["Q5P", 1.71],
  ["V10P", 2.15],
  ["D9C", 2.38],
  ["D22H", 2.4],
  ["D9Q", 1.68],
  ["A6R", 2.07],
  ["D22F", 1.57],
  ["L8C", 2.43],
  ["F19R", 1.88],
  ["A6V", 1.86],
  ["A6W", 2.7],
  ["G20Q", 2.03],
  ["E21M", 1.71],
  ["L8P", 2],
  ["I13T", 1.9],
  ["V10Y", 1.62],
  ["E21P", 1.4],
  ["Q5G", 1.87],
  ["Q5L", 1.75],
  ["K18Q", 1.95],
  ["H3D", 2.14],
  ["H15V", 2.08],
  ["G20N", 1.96],
  ["L7P", 2.73],
  ["D22P", 2.21],
  ["M23I", 2.39],
  ["G20F", 3.09],
  ["N12F", 2.65],
  ["I13V", 2.31],
  ["Q16S", 1.87],
  ["D22S", 2.48],
  ["H4D", 2.64],
  ["E21G", 2.14],
  ["D22T", 1.86],
  ["Q5M", 2.21],
  ["I13Y", 1.95],
  ["N12A", 2],
  ["G20A", 1.99],
  ["K18G", 2.58],
  ["H15Q", 2.08],
  ["P24I", 2.06],
  ["A6K", 1.64],
  ["N12L", 1.93],
  ["F19C", 1.78],
  ["K18C", 1.37],
  ["D22G", 1.64],
  ["K18A", 2.23],
  ["Q16H", 1.77],
  ["V10T", 1.86],
  ["H4I", 1.97],
  ["E21D", 1.97],
  ["V2I", 1.81],
  ["E21Q", 2.11],
  ["A6D", 2.22],
  ["Y1F", 1.94],
  ["L7N", 2.4],
  ["D9V", 1.25],
  ["N12M", 1.87],
  ["I13P", 2.17],
  ["A6H", 1.86],
  ["E21W", 2.02],
  ["Y1E", 4.05],
  ["V2P", 3],
  ["L7C", 1.97],
  ["M23R", 1.97],
  ["D22V", 1.5],
  ["H3A", 1.55],
  ["N12D", 1.67],
  ["N17V", 1.75],
  ["A14E", 2.3],
  ["Q5T", 1.95],
  ["A6Y", 2.07],
  ["K18N", 2.26],
  ["H3K", 2.18],
  ["Q16K", 1.49],
  ["F19H", 2.53],
  ["K18R", 2.88],
  ["Q16W", 2],
  ["A14V", 2.59],
  ["L8N", 2.71],
  ["Q5R", 2],
  ["L8F", 3.34],
  ["A14K", 2.33],
  ["K18F", 1.9],
  ["D22E", 1.69],
  ["A14N", 2.26],
  ["E21N", 2],
  ["D22K", 2.09],
  ["M23A", 1.94],
  ["A14F", 1.52]
]}
